- assay.notes: total protein half-life in vivo (active degradation + dilution); higher = more stable protein
- run.conditions: wild type E. coli NCM3722; growth: P-lim chemostat; doubling time 6 h
Reported total protein half-life in vivo values for the following sequences.
Entry rule: numbers only, all in h.

Before answering, review these 2 worked examples.
# sequence.string, total protein half-life in vivo / h
data = [
    ("MIPFNAPPVVGTELDYMQSAMGSGKLCGDGGFTRRCQQWLEQRFGSAKVLLTPSCTASLEMAALLLDIQPGDEVIMPSYTFVSTANAFVLRGAKIVFVDVRPDTMNIDETLIEAAITDKTRVIVPVHYAGVACEMDTIMALAKKHNLFVVEDAAQGVMSTYKGRALGTIGHIGCFSFHETKNYTAGGEGGATLINDKALIERAEIIREKGTNRSQFFRGQVDKYTWRDIGSSYLMSDLQAAYLWAQLEAADRINQQRLALWQNYYDALAPLAKAGRIELPSIPDGCVQNAHMFYIKLRDIDDRSALINFLKEAEIMAVFHYIPLHGCPAGEHFGEFHGEDRYTTKESERLLRLPLFYNLSPVNQRTVIATLLNYFS", 6.11),
    ("MRQTKTGILLANLGTPDAPTPEAVKRYLKQFLSDRRVVDTSRLLWWPLLRGVILPLRSPRVAKLYASVWMEGGSPLMVYSRQQQQALAQRLPEMPVALGMSYGSPSLESAVDELLAEHVDHIVVLPLYPQFSCSTVGAVWDELARILARKRSIPGISFIRDYADNHDYINALANSVRASFAKHGEPDLLLLSYHGIPQRYADEGDDYPQRCRTTTRELASALGMAPEKVMMTFQSRFGREPWLMPYTDETLKMLGEKGVGHIQVMCPGFAADCLETLEEIAEQNREVFLGAGGKKYEYIPALNATPEHIEMMANLVAAYR", 5.73),
]

Q. Given the entry MSVRLVLAKGREKSLLRRHPWVFSGAVARMEGKASLGETIDIVDHQGKWLARGAYSPASQIRARVWTFDPSESIDIAFFSRRLQQAQKWRDWLAQKDGLDSYRLIAGESDGLPGITIDRFGNFLVLQLLSAGAEYQRAALISALQTLYPECSIYDRSDVAVRKKEGMELTQGPVTGELPPALLPIEEHGMKLLVDIQHGHKTGYYLDQRDSRLATRRYVENKRVLNCFSYTGGFAVSALMGGCSQVVSVDTSQEALDIARQNVELNKLDLSKAEFVRDDVFKLLRTYRDRGEKFDVIVMDPPKFVENKSQLMGACRGYKDINMLAIQLLNEGGILLTFSCSGLMTSDLFQKIIADAAIDAGRDVQFIEQFRQAADHPVIATYPEGLYLKGFACRVM , report its measured total protein half-life in vivo.
A. 6.28

Q. Same lookup for MTRPIQASLDLQALKQNLSIVRQAATHARVWSVVKANAYGHGIERIWSAIGATDGFALLNLEEAITLRERGWKGPILMLEGFFHAQDLEIYDQHRLTTCVHSNWQLKALQNARLKAPLDIYLKVNSGMNRLGFQPDRVLTVWQQLRAMANVGEMTLMSHFAEAEHPDGISGAMARIEQAAEGLECRRSLSNSAATLWHPEAHFDWVRPGIILYGASPSGQWRDIANTGLRPVMTLSSEIIGVQTLKAGERVGYGGRYTARDEQRIGIVAAGYADGYPRHAPTGTPVLVDGVRTMTVGTVSMDMLAVDLTPCPQAGIGTPVELWGKEIKIDDVAAAAGTVGYELMCALALRVPVVTV , please.
A. 6.81
